Reported values of IC50 for individual entries
Target: human ADAMTS-5 (Homo sapiens (Human), UniProt Q9UNA0)
Sequence (Q9UNA0 262-930): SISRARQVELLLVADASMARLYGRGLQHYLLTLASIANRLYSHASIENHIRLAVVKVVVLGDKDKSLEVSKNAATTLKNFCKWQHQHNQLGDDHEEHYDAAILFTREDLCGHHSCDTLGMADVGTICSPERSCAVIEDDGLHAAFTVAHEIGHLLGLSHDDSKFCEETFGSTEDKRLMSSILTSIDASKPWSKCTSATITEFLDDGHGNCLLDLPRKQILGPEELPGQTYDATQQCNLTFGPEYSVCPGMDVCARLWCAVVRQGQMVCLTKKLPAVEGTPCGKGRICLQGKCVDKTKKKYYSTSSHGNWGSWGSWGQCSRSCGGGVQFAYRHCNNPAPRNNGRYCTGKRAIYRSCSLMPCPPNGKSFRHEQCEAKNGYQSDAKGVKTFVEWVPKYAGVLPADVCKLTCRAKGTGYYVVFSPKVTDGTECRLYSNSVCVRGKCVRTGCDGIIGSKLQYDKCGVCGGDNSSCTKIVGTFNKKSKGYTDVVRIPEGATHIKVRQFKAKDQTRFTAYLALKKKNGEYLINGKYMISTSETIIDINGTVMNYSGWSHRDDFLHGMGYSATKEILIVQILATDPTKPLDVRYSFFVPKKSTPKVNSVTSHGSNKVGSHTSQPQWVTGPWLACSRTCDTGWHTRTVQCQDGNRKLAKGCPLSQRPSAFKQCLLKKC
Assay: hADAMTS-5 TBIS-1 cleavage assay, Protocol 3
Type: biochemical
Conditions: Protocol 3, TBIS-1 substrate, 90 min at 37° C.; read-out: hADAMTS-5 potency IC50

Below, each entry is followed by its recorded IC50 result.
# compound, IC50
measured = [
    ("COc1cc(C2CCN(C(=O)CC[C@H]3NC(=O)NC3=O)CC2)cc(OC)c1Cl", "> 100 nM"),
    ("COc1ccc(Cl)cc1C1CCN(C(=O)CCC2(C)NC(=O)NC2=O)CC1 (centres unmarked)", "> 100 nM"),
    ("O=C1NC(=O)C(CCC(=O)N2CCC(c3cc(Cl)cc(Cl)c3)CC2)(C2CC2)N1 (centres unmarked)", "50 to 100 nM"),
    ("CCOc1cc(C2CCN(C(=O)CC[C@@]3(C)NC(=O)NC3=O)CC2)cc(OC)c1Cl", "> 100 nM"),
    ("COc1cc(OC)cc(C2CCN(C(=O)CC[C@H]3NC(=O)NC3=O)CC2)c1", "> 100 nM"),
    ("C[C@@H](C[C@@]1(C)NC(=O)NC1=O)C(=O)N1CCC(c2ccc(Cl)cc2)CC1 (stereo in doubt)", "50 to 100 nM"),
    ("Cc1ccccc1C1CCN(C(=O)CC[C@H]2NC(=O)NC2=O)CC1", "> 100 nM"),
    ("COc1cc(C2CCN(C(=O)CC[C@@]3(C)NC(=O)NC3=O)CC2)cc(Cl)c1F", "50 to 100 nM"),
]

So, `COc1cc(C2CCN(C(=O)CC[C@H]3NC(=O)NC3=O)CC2)cc(C)c1Cl` ? Its IC50 was > 100 nM

Lookup result for `COc1cc(Cl)ccc1C1CCN(C(=O)CC[C@@]2(C)NC(=O)NC2=O)CC1` ; measured IC50: > 100 nM

Lab book: IC50 of `COc1cc(F)c(Cl)cc1C1CCN(C(=O)CC[C@@]2(C)NC(=O)NC2=O)CC1` noted as > 100 nM

Please fill in: IC50 reported for C[C@@H](C[C@@]1(C)NC(=O)NC1=O)C(=O)N1CCC(c2cccc(F)c2)CC1 (stereo in doubt) = 25 to 50 nM

Entry `Cc1c(Cl)cc(Cl)cc1C1CCN(C(=O)CC[C@H]2NC(=O)NC2=O)CC1` — recorded IC50 = > 100 nM

Please fill in: IC50 reported for COc1cc(C2CCN(C(=O)[C@@H](C)C[C@@]3(C)NC(=O)NC3=O)CC2)cc(C)c1Cl (stereo in doubt) = 25 to 50 nM

Value of IC50 reported for the compound COc1cc(C2CCN(C(=O)CCC3(C)NC(=O)NC3=O)CC2)cc(OC)c1Cl (centres unmarked) is > 100 nM

get_value(item= `COc1cc(Cl)ccc1C1CCN(C(=O)CC[C@H]2NC(=O)NC2=O)CC1` , readout=IC50) returns > 100 nM

Kindly note the recorded IC50 for `COc1cc(Cl)cc(C2CCN(C(=O)CC[C@H]3NC(=O)NC3=O)CC2)c1` , which is > 100 nM

###

Target: human ADAMTS-5 (Homo sapiens (Human))
Experiment: hADAMTS-5 TBIS-1 cleavage assay, Protocol 3
Format: biochemical
Conditions: Protocol 3, TBIS-1 substrate, 90 min at 37° C.; read-out: hADAMTS-5 potency IC50
pIC50: −log10 of the molar value.
Listing of entries alongside the reported pIC50.

# compound, assayed-target, pIC50
rows = [
    ("COc1cc(C2CCN(C(=O)CCC3(C)NC(=O)NC3=O)CC2)ccc1F (stereo not drawn) [Cpd 55]", "human ADAMTS-5 (Homo sapiens (Human))", "< 7.00"),
    ("COc1cc(Cl)c(F)cc1C1CCN(C(=O)CC[C@@]2(C)NC(=O)NC2=O)CC1 [Cpd 100]", "human ADAMTS-5 (Homo sapiens (Human))", "< 7.00"),
]

Query COc1cc(Cl)c(F)cc1C1CCN(C(=O)C(C)CC2(C)NC(=O)NC2=O)CC1 (stereo not drawn) [Cpd 110] yields pIC50 of 7.00 to 7.30

Just so you know, measured pIC50 for Cc1cc(Cl)c(Cl)cc1C1CCN(C(=O)CCC2(C)NC(=O)NC2=O)CC1 (stereo not drawn) [Cpd 71] came out at < 7.00

Measured pIC50 of C[C@H]1CN(C(=O)CC[C@@]2(C3CC3)NC(=O)NC2=O)CC[C@@H]1c1ccc(F)c(F)c1 [Cpd 77] : < 7.00

Data point: C[C@@H](C[C@@]1(C)NC(=O)NC1=O)C(=O)N1CCC(c2ccccc2)CC1 [Cpd 23] ; pIC50 = 7.00 to 7.30

Sample Cc1cc(Cl)ccc1C1CCN(C(=O)CCC2(C)NC(=O)NC2=O)CC1 (stereo not drawn) [Cpd 60] ; pIC50 observed: < 7.00

GET /value?item= Cc1ccccc1C1CCN(C(=O)CCC2(C)NC(=O)NC2=O)CC1 (stereo not drawn) [Cpd 57] &field=pIC50 returns < 7.00

So, COc1c(Cl)cccc1C1CCN(C(=O)CCC2(C)NC(=O)NC2=O)CC1 (stereo not drawn) [Cpd 75] ? Its pIC50 was < 7.00

Entry O=C1NC(=O)[C@@H](CCC(=O)N2CCC(c3ccc(F)c(F)c3)CC2)N1 [Cpd 53] ; pIC50 = < 7.00

Please fill in: pIC50 reported for COc1cc(C2CCN(C(=O)CCC3(C)NC(=O)NC3=O)CC2)cc(Cl)c1F (stereo not drawn) [Cpd 73] = < 7.00

The reported pIC50 of the compound Cc1cc(C2CCN(C(=O)CC[C@@]3(C)NC(=O)NC3=O)CC2)cc(C)c1Cl [Cpd 93] was < 7.00

###

A collection of compounds and their measured pIC50
Molecular target: human ADAMTS-5 (Homo sapiens (Human))
Experiment: hADAMTS-5 TBIS-1 cleavage assay, Protocol 3
Format: biochemical
Settings: Protocol 3, TBIS-1 substrate, 90 min at 37° C.; read-out: hADAMTS-5 potency IC50
pIC50: −log10 of the molar value.

These recorded examples may help you get a feel for the data.
# compound, assayed-target, reported-metric, result
records = [
    ("C[C@H]1CN(C(=O)CCC2(C3CC3)NC(=O)NC2=O)CC[C@H]1c1ccc(F)c(F)c1 (some centres unmarked)", "human ADAMTS-5 (Homo sapiens (Human))", "pIC50", "7.00 to 7.30"),
    ("C[C@@H](C[C@@]1(C)NC(=O)NC1=O)C(=O)N1CCC(c2cc(Cl)cc(Cl)c2)CC1 (stereo in doubt)", "human ADAMTS-5 (Homo sapiens (Human))", "pIC50", "7.30 to 7.60"),
    ("C[C@@H](C[C@@]1(C2CC2)NC(=O)NC1=O)C(=O)N1CCC(c2ccccc2)CC1", "human ADAMTS-5 (Homo sapiens (Human))", "pIC50", "7.00 to 7.30"),
    ("COc1cc(C2CCN(C(=O)CC[C@H]3NC(=O)NC3=O)CC2)ccc1F", "human ADAMTS-5 (Homo sapiens (Human))", "pIC50", "< 7.00"),
]

Let me check: COc1cc(F)cc(C2CCN(C(=O)CCC3(C)NC(=O)NC3=O)CC2)c1 (centres unmarked) , system human ADAMTS-5 (Homo sapiens (Human)), measured pIC50 is < 7.00

pIC50 of `COc1cc(Cl)c(Cl)cc1C1CCN(C(=O)CC[C@@]2(C)NC(=O)NC2=O)CC1` , assay on human ADAMTS-5 (Homo sapiens (Human)), is < 7.00

The measured pIC50 that Cc1cccc(C2CCN(C(=O)[C@@H](C)C[C@@]3(C)NC(=O)NC3=O)CC2)c1 (stereo in doubt) showed for human ADAMTS-5 (Homo sapiens (Human)) is 7.30 to 7.60

Entry COC[C@]1(C[C@H](C)C(=O)N2CCC(c3cc(C)c(Cl)c(OC)c3)CC2)NC(=O)NC1=O (stereo in doubt) : pIC50 on human ADAMTS-5 (Homo sapiens (Human)) = 7.30 to 7.60

pIC50 on human ADAMTS-5 (Homo sapiens (Human)) for `COc1c(Cl)cccc1C1CCN(C(=O)CC[C@H]2NC(=O)NC2=O)CC1` is < 7.00

Tested on human ADAMTS-5 (Homo sapiens (Human)): `COc1cc(C2CCN(C(=O)CC[C@@]3(C)NC(=O)NC3=O)CC2)cc(N(C)C)c1Cl` . Observed pIC50: < 7.00

###

Molecular target: human ADAMTS6 (Homo sapiens (Human))
Sequence (Q9UKP5 other isoform, or with tags, fused parts or gaps): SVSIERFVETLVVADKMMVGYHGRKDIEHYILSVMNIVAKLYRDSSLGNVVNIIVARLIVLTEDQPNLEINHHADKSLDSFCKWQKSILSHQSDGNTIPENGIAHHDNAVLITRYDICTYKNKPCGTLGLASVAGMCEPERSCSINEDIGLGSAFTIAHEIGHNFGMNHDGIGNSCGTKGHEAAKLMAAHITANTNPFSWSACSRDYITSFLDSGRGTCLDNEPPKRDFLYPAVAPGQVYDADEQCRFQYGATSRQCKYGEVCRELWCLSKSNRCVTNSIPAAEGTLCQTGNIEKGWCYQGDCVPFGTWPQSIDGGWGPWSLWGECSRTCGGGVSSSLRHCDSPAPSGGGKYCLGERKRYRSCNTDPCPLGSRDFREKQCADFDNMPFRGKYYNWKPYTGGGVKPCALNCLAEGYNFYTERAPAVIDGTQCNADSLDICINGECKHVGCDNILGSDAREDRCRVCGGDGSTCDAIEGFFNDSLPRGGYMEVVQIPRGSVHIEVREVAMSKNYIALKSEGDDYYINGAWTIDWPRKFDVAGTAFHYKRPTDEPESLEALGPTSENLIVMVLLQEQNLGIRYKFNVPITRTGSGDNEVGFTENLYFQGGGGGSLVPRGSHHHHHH
pIC50: −log10 of the molar value.
reported-metric: pIC50

Reference set (4 entries):
# compound, pIC50
data = [
    ("Cc1c(Cl)cc(Cl)cc1C1CCN(C(=O)CC[C@H]2NC(=O)NC2=O)CC1", "7.00 to 7.30"),
    ("O=C1NC(=O)[C@H](CCC(=O)N2CCC(c3ccccc3)CC2)N1", "< 7.00"),
    ("COc1cc(C2CCN(C(=O)CCC3(C)NC(=O)NC3=O)CC2)c(C)cc1Cl (stereo not shown)", "7.60 to 12.00"),
    ("CC1(CCC(=O)N2CCC(c3ccccc3F)CC2)NC(=O)NC1=O (stereo not shown)", "< 7.00"),
]

Data point: `O=C1NC(=O)[C@@H](CCC(=O)N2CCC(c3ccc(Cl)c(F)c3)CC2)N1` ; pIC50 = 7.00 to 7.30

// sample Cc1cccc(C2CCN(C(=O)[C@@H](C)C[C@@]3(C)NC(=O)NC3=O)CC2)c1 (stereo in doubt) , its pIC50 was 7.30 to 7.60

Per the records, this compound ( `COc1cc(C2CCN(C(=O)CC[C@H]3NC(=O)NC3=O)CC2)cc(F)c1F` ) has pIC50 equal to 7.30 to 7.60

Query C[C@@H](C[C@@]1(C)NC(=O)NC1=O)C(=O)N1CCC(c2ccc(Cl)cc2)CC1 (stereo in doubt) yields pIC50 of 7.60 to 12.00

// sample COc1cc(C2CCN(C(=O)CCC3(C)NC(=O)NC3=O)CC2)cc(Cl)c1F (stereo not shown) , its pIC50 was 7.60 to 12.00

Please fill in: pIC50 reported for COc1cc(Cl)ccc1C1CCN(C(=O)CCC2(C)NC(=O)NC2=O)CC1 (stereo not shown) = 7.60 to 12.00

pIC50 reading for O=C1NC(=O)C(CCC(=O)N2CCC(c3cccc(F)c3)CC2)(C2CC2)N1 (stereo not shown) : < 7.00

Value of pIC50 reported for the compound C[C@H]1CN(C(=O)CCC2(C3CC3)NC(=O)NC2=O)CC[C@H]1c1ccc(F)c(F)c1 (stereo partly shown) is 7.00 to 7.30

In plain terms, CC1(CCC(=O)N2CCC(c3ccc(F)c(F)c3)CC2)NC(=O)NC1=O (stereo not shown) has a documented pIC50 of < 7.00
